Biological target: thrombin (Bos taurus)
Assay: Thrombin inhibition by solid phase compounds of Tables 11-15
Format: biochemical
Design: 100 μl of 10 μM thrombin solution
Conditions: mixtures of diastereomers; read-out: Ki as thrombin inhibitors (mark at Cpd. No.)
pKi: −log10 of the molar value.
Measurement label: pKi

The examples below pair each entry with its known result.
Give recorded pKi. CC1=CC(C(=O)NC(CCCNC(=N)N)C(=O)c2nc(C(N)=O)c[nH]2)n2c(=O)n(CC(c3ccccc3)c3ccccc3)c(=O)n2C1 (stereo not drawn)
> 8.00

Give recorded pKi. CCC=CCCC1C=CC(C(=O)NC(CCCCN)C(=O)C(=O)NCCc2ccc(C(N)=O)cc2)n2c(=O)n(Cc3ccccc3)c(=O)n21 (mixture of isomers)
> 8.00

Next:
Give recorded pKi. CC(C)(C)CC1C=CC(C(=O)NC(CCCCN)C(=O)C(=O)NCCc2ccc(C(N)=O)cc2)n2c(=O)n(C(Cc3ccccc3)c3ccccc3)c(=O)n21 (stereo not drawn)
> 8.00

====

Molecular target: FVIIa and TF complex (Homo sapiens)
Construct: 50 μl of 16 nM FVIIa and TF complex solution
Sequence (P08709 213-466 limits assumed): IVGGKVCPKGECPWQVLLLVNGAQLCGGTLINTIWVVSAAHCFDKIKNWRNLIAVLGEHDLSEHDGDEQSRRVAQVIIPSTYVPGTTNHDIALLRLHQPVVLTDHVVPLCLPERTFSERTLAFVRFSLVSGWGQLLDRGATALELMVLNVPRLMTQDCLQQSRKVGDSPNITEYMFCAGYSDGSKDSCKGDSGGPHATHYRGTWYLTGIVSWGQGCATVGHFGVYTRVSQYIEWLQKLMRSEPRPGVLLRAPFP
Sequence (P08709 61-212 limits assumed): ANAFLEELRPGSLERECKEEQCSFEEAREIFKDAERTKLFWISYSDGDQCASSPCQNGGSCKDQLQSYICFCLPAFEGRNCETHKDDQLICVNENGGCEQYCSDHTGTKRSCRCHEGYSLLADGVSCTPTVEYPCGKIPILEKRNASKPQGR
Sequence (P13726 33-295 partner): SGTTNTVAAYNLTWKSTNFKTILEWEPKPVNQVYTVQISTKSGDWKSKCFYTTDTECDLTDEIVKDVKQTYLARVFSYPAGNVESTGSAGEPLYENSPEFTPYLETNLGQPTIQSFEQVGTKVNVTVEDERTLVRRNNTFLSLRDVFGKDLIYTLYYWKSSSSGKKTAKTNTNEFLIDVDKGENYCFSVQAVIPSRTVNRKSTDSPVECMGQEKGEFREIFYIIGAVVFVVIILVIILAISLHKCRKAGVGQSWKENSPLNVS
Assay: Factor VII inhibition assay (IC50, Example 4)
Measurement label: IC50 (nM)
Give the value, in units of nM, as a plain number.

Give recorded IC50. N=C(N)NCCC[C@H](NC(=O)[C@@H]1CCCN1C(=O)[C@H](N)Cc1ccccc1)C(=O)CCl [PPACK, reference compound]
200
